Answer each item with its documented GI50.
- Test system: MCF7 breast
- protocol-text: NCI tumour cell line growth inhibition, 48 h

> print(dat)
                                   compound    value
1  COc1ccc2[nH]c(Cl)c(/C=C3/C(=O)Nc4ccccc43)c2c1  0.79 µM
2  COc1ccc(-c2nn(-c3cccc(Cl)c3)cc2/C=C2\NC(=S)N(c3ccc(Cl)cc3)C2=O)cc1   5.6 µM
3  COc1ccc(-n2cc(-c3cc(OC)c(OC)c(OC)c3)nc2SCc2ccc(Cl)cc2)cc1OC  92.6 µM
4  Cc1cccc2c(C3=C(c4cn(C)c5ccccc45)C(=O)NC3=O)cn(C)c12  9.03 µM
5  O=CC(OC(=O)c1ccccc1)C(OC(=O)c1ccccc1)C(COC(c1ccccc1)(c1ccccc1)c1ccccc1)OC(=O)c1ccccc1 (stereo not drawn)  6.38 µM
6  Clc1ccc(-c2cc(-c3ccccc3)nc(N3CCN(CCCNc4ccnc5cc(Cl)ccc45)CC3)n2)cc1  1.63 µM

The following compounds each have a reported value; give each one's GI50.
1. CNC(=O)c1cc(Oc2ccc3nc(NC(=O)Nc4ccc(CN5CCOCC5)c(C(F)(F)F)c4)sc3c2)ccn1
2. C[C@@H]1CC[C@H]2[C@@H](C)C(O)O[C@@H]3O[C@]4(C)CC[C@@H]1[C@]32OO4 (stereo partly drawn)

1. 1.75 µM
2. 1.66 µM

* * *

- Test system: MDA-MB-231 breast
- protocol-text: NCI tumour cell line growth inhibition, 48 h
measurement-label: TGI

// solved cases for TGI follow
compound	value
Cc1ccc(Nc2c3c(c(C#N)c4nc5ccccc5n24)CCCC3)cc1	62.4 µM
CCOC(=O)COc1cc(-c2ccccc2F)nc2cc3c(cc12)OCO3	> 100 µM
C[C@@H](C1CC[C@H]2[C@@H]3[C@@H]4O[C@@H]4[C@@]4(O)CC=CC(=O)[C@]4(C)[C@H]3C[C@H](O)[C@]12C)[C@H]1C[C@]2(C)O[C@]2(C)C(=O)O1 (stereo not given in full)	> 100 µM

The following compounds each have a reported value; give each one's TGI.
1. Cc1ccc(C2(O)c3ccccc3C(=O)N(C)C2(O)c2ccc(C)cc2)cc1 (stereo not given)
2. CC12NC(=C(C#N)C#N)C(C#N)=C3NC(N)=C(C#N)C(=C31)Oc1ccccc12 (stereo not given)
3. O=C1/C(=C/c2cccnc2)SC(=S)N1Cc1ccco1
4. Cc1cccc(C(C)(C)C)c1NC(=O)C(C#N)C1=C(Cl)C(=O)c2ccccc2C1=O (stereo not given)
5. CC(=O)Nc1ccc(NC(=O)CC(=O)Nc2ccc(NC(C)=O)cc2)cc1
6. Cc1ccc(S(=O)(=O)NC(=O)Nc2c(S(N)(=O)=O)cc(S(N)(=O)=O)c(Cl)c2Cl)cc1
7. N/C(=N\N=C\c1cc2ccccc2s1)c1cnccn1
8. Cc1cc(=O)oc2c(C3=NN(C=O)C(c4ccccc4)C3)c(O)ccc12 (stereo not given)

> 100 µM
> 100 µM
> 51.1 µM
27.3 µM
> 100 µM
> 100 µM
> 100 µM
> 100 µM

The following compounds each have a reported value; give each one's TGI.
1. CC/C=C\C[C@H]1C/C=C2/C(=O)C=C[C@H]2C/C=C\CCCC(=O)O1
2. CC(C)C[S+]1C2=C([O-])CC(C)(C)CC2=Nc2ccccc21 (stereo not given)

1: 14.8 µM; 2: > 100 µM

The following compounds each have a reported value; give each one's TGI.
1. C/C=C1\CC(C(=O)OCC)CCCCCCC1=O (stereo not given)
2. Cc1nc2cn3c(c2c(=O)[nH]1)CCCCC3
3. Cc1nnc(C[C@@H]2C=C(c3ccc(Cl)cc3)c3ccccc3-n3c(C)nnc32)o1
4. CC(=N/NC(=S)N1CCCCCC1)/C(C)=N\NC(=S)N1CCCCCC1

1: > 100 µM; 2: 69.7 µM; 3: > 100 µM; 4: > 22.8 µM

The following compounds each have a reported value; give each one's TGI.
1. O=C(O)c1cc2ccccc2c(Cc2c(O)c(C(=O)O)cc3ccccc23)c1O
2. C[C@H]1CCC/C=C/C2CC(OC(=O)CN(C)C)CC2C(OC(=O)CN(C)C)/C=C/C(=O)O1 (stereo not given in full)

1: > 100 µM; 2: 0.806 µM

For the compound O=[N+]([O-])c1cc(C2(N3CCCCC3)CCCCC2)sc1Br , report TGI. 27.4 µM

Value source: PubChem BioAssay (NCI)
